Tested on: Aspergillus flavus
ASSAY_NAME: Ratio of miconazole MIC to compound MIC for Aspergillus flavus MTCC 277
Assay type: functional

| MOLECULE | Ratio |
| --- | --- |
| COc1ccc(C2=NN(C(C)=O)C(c3ccc(NC(=O)Nc4ccc(C(F)(F)F)cc4)cc3)C2)cc1OC (centres undefined) | 1.3 |
| COc1ccc(C2=NN(C(C)=O)C(c3ccc(NS(=O)(=O)c4ccc(C(F)(F)F)cc4Cl)cc3)C2)cc1OC (centres undefined) | 1.5 |
| COc1ccc(C2=NN(C(C)=O)C(c3ccc(NS(=O)(=O)c4ccc(C(F)(F)F)cc4)cc3)C2)cc1OC (centres undefined) | 2 |
| COc1ccc(C2=NN(C(C)=O)C(c3ccc(NS(=O)(=O)c4ccc(C(F)(F)F)cc4Br)cc3)C2)cc1OC (centres undefined) | 2 |
